Some compounds, each annotated with its measured inhibition at 20 µM.
target: TelJak2 (BaF3 TELJAK cells, TEL/Jak2 fusion) (Homo sapiens, UniProt O60674); construct: The regions encompassing the kinase domain of JAK2 (nucleotides 2994-3914); expressed in transfected cells; host or cells: BaF3 cells bearing the pTET-off plasmid, transfected with pTELJAK2 (pTRE2 vector); the other entry of the earlier key: ETV6 (P41212, Transcription factor ETV6); test: Cellular growth inhibition assay (MTT), BaF3 TEL:JAK2 cell line; type: cell-based; details: Table 1, 40 hr incubation
Sequence (O60674 with tags, fused parts or gaps): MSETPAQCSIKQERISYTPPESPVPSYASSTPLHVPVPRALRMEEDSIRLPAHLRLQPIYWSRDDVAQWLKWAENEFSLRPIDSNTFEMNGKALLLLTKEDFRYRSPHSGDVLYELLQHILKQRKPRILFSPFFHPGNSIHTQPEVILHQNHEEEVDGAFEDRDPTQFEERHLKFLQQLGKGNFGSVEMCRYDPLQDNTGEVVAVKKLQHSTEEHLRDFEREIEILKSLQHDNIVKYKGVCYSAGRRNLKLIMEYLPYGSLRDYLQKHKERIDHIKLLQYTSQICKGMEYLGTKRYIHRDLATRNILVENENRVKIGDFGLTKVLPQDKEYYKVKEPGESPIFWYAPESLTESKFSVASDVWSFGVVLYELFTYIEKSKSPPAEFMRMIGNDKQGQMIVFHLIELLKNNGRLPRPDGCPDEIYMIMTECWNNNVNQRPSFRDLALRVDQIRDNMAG

Known results for compounds:
[
  {
    "compound": "CCCC(Nc1cncc(-c2ccc(C(=O)N3CCN(C)CC3)cc2)n1)c1ccccc1 (stereo not drawn)",
    "meas value": "> 50%"
  },
  {
    "compound": "CCCC(Nc1cncc(-c2ccc(CN3CCC(O)CC3)cc2)n1)c1ccccc1 (stereo not drawn)",
    "meas value": "> 50%"
  },
  {
    "compound": "CCCC(Nc1cncc(-c2ccc(NC(=O)NCC)c(C)c2)n1)c1cnccc1C (stereo not drawn)",
    "meas value": "> 50%"
  },
  {
    "compound": "CCCC(Nc1cncc(-c2ccc(OCCCn3ccnc3)c(OC)c2)n1)c1ccccc1 (stereo not drawn)",
    "meas value": "> 50%"
  },
  {
    "compound": "CCCC(Nc1cncc(-c2ccc(NC(=O)NCC)c(OC)c2)n1)c1cnccc1C (stereo not drawn)",
    "meas value": "> 50%"
  },
  {
    "compound": "CCNC(=O)Nc1ccc(-c2cncc(N[C@@H](CC)c3cccnc3)n2)cc1OC",
    "meas value": "> 50%"
  },
  {
    "compound": "COc1cc(-c2cc(N[C@@H](C)c3ccccc3)ncn2)ccc1O",
    "meas value": "> 50%"
  },
  {
    "compound": "CCCC(Nc1cncc(-c2ccc(OCCCN3CCN(C)CC3)c(OC)c2)n1)c1cccnc1 (stereo not drawn)",
    "meas value": "> 50%"
  }
]

Turning now to a further record.
Q: I would be grateful if you could share the reported inhibition at 20 µM for COc1cc(-c2cncc(N[C@@H](C)c3ccccc3)c2)ccc1O .
Result: > 50%

These entries and their values trace back to patent US9732046B2.
